MEASURED ON: BCAT2 (Homo sapiens, UniProt O15382)
Sequence (O15382 28-392): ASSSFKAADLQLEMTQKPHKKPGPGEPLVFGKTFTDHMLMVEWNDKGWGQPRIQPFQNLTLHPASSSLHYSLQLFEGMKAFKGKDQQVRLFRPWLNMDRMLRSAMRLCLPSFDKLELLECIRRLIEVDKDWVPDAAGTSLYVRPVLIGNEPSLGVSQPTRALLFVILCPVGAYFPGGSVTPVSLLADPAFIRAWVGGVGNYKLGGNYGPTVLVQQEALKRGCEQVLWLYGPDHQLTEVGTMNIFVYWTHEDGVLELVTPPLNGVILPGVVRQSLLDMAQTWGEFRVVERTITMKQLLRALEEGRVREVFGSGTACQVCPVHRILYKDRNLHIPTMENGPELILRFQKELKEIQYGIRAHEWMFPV
PROTOCOL DESCRIPTION: BCAT2 in vitro enzyme inhibition assay (hBCAT2, glutamate dehydrogenase/diaphorase/resazurin coupled fluorescence read)
Type: biochemical
MEASUREMENT CONDITIONS: hBCAT2, 1 h preincubation at 25° C., one hour reaction; average where tested multiple times
Description: • 2×Buffer: 200 mM Tris pH 8.0, 300 mM NaCl, 0.1% BSA • 1.67×hBCAT2 Enzyme Mix: 0.33 μg/mL hBCAT2, 1× Buffer • 2.5×Substrate Mix: 460 µM L-leucine, 420 µM α-KetoGlutarate, 10 U/mL glutamate dehydrogenase, 10 mM NAD, […] diaphorase, […] Resazurin BCAT2 enzyme stock solution was diluted to prepare a 1.67×hBCAT2 Enzyme Mix. […] Reactions were quenched after one hour by the addition of 25 μL of 6% SDS and reaction progress was measured via fluorescence read (Ex 540/Em 590). […]
# Lookup of reported IC50 keyed by entry

1. O=C(N[C@@H]1C[C@H](n2c(-c3ccccc3OCCO)nc3ccc(-c4nc[nH]n4)cc32)CC(F)(F)C1)c1cc(F)ccn1 [Example 231] = < 100 nM
2. CN1C[C@@H](NC(=O)c2cc(Cl)ccc2F)C[C@@H](n2c(-c3ccccc3F)nc3cnc(-c4nc[nH]n4)cc32)C1 [Example 144] = 100 to 500 nM
3. O=C1c2cc(F)ccc2CN1[C@H]1CCC[C@@H](n2c(-c3ccccc3F)nc3cnc(-c4nc[nH]n4)cc32)[C@@H]1O [Example 184] = < 100 nM

Then this compound:
Req: Give IC50 for COc1ccnc(C(=O)N[C@H]2CCC[C@@H](n3c(-c4ccccc4F)nc4cnc(-c5nc[nH]n5)cc43)C2)c1 [Example 60]
Resp: < 100 nM

###

MEASURED ON: BCAT2 (Homo sapiens, UniProt O15382)
PROTOCOL DESCRIPTION: BCAT2 cell inhibition using engineered A549 cells (MUT KO, BCAT1 KO; 13C6-KMV formation by LC-MS/MS)
Type: cell-based
Design: expressed endogenous BCAT2; endogenous in cells; host or cells: A549 cells, MUT knockout and BCAT1 knockout
# Lookup of reported IC50 keyed by entry

Example entries and their recorded answers appear below.
1. O=C1c2cc(F)ccc2OCN1[C@H]1CCC[C@@H](n2c(-c3ccccc3F)nc3cnc(-c4nc[nH]n4)cc32)C1 = < 100 nM
2. N#Cc1ccccc1-c1nc2cnc(-c3nc[nH]n3)cc2n1[C@@H]1CCC[C@H](NC(=O)c2cc(F)ccc2F)C1 = 100 to 500 nM

Req: Quote IC50 with test system BCAT2 (Homo sapiens, UniProt O15382) for CC(Oc1ccc(Cl)cc1C(=O)N[C@H]1CCC[C@@H](n2c(-c3ccccc3F)nc3cnc(-c4nc[nH]n4)cc32)C1)C(F)(F)F (some centres unmarked)
Resp: 100 to 500 nM

Req: Quote IC50 with test system BCAT2 (Homo sapiens, UniProt O15382) for "CCOc1ccc(Cl)cc1C(=O)N[C@H]1CCC[C@@H](n2c(-c3ccccn3)nc3cnc(-c4nc[nH]n4)cc32)C1"
Resp: 100 to 500 nM

Req: Quote IC50 with test system BCAT2 (Homo sapiens, UniProt O15382) for "CC(C)Oc1ccc(Cl)cc1C(=O)N[C@H]1CCC[C@@H](n2c(-c3ccccc3C#N)nc3cnc(-c4nc[nH]n4)cc32)C1"
Resp: < 100 nM

Req: Quote IC50 with test system BCAT2 (Homo sapiens, UniProt O15382) for "O=C(N[C@H]1CCC[C@@H](n2c(-c3ccccc3F)nc3cnc(-c4ncn(C(F)F)n4)cc32)[C@@H]1O)c1cc(Cl)ccn1"
Resp: < 100 nM

Req: Quote IC50 with test system BCAT2 (Homo sapiens, UniProt O15382) for "O=C(N[C@H]1CCC[C@@H](n2c(-c3ncccc3F)nc3cnc(-c4nc[nH]n4)cc32)C1)c1cc(F)ccc1F"
Resp: 100 to 500 nM

Req: Quote IC50 with test system BCAT2 (Homo sapiens, UniProt O15382) for "O=C1c2cc(F)ccc2CN1[C@H]1CCC[C@@H](n2c(-c3c(F)cccc3F)nc3cnc(-c4ncccn4)cc32)[C@@H]1O"
Resp: 100 to 500 nM

Req: Quote IC50 with test system BCAT2 (Homo sapiens, UniProt O15382) for "O=C(N[C@H]1CCC[C@@H](n2c(-c3ccccn3)nc3cnc(-c4nc[nH]n4)cc32)C1)c1cc(Cl)ccn1"
Resp: 100 to 500 nM

Req: Quote IC50 with test system BCAT2 (Homo sapiens, UniProt O15382) for "O=C1c2cc(F)ccc2OCN1[C@H]1CCC[C@@H](n2c(-c3ccccc3OC(F)F)nc3cnc(-c4nc[nH]n4)cc32)C1"
Resp: < 100 nM

Req: Quote IC50 with test system BCAT2 (Homo sapiens, UniProt O15382) for "O=C(N[C@H]1CCC[C@@H](n2c(-c3ccccc3F)nc3cnc(-c4nc[nH]n4)cc32)C1)c1cc(Cl)ccc1OCCO"
Resp: < 100 nM

Req: Quote IC50 with test system BCAT2 (Homo sapiens, UniProt O15382) for "O=C(N[C@H]1CCC[C@@H](n2c(-c3ccccc3F)nc3cnc(-c4nc[nH]n4)cc32)C1)c1cc(Cl)cc2ccoc12"
Resp: < 100 nM

Req: Quote IC50 with test system BCAT2 (Homo sapiens, UniProt O15382) for "O=C1c2cc(F)ccc2CN1[C@H]1CCC[C@@H](n2c(-c3ccccc3OCCO)nc3cnc(-c4nc[nH]n4)cc32)C1"
Resp: < 100 nM

###

MEASURED ON: BCAT2 (Homo sapiens, UniProt O15382)
PROTOCOL DESCRIPTION: BCAT2 cell inhibition using engineered A549 cells (MUT KO, BCAT1 KO; 13C6-KMV formation by LC-MS/MS)
Assay type: cell-based
Set-up: expressed endogenous BCAT2; endogenous in cells; host or cells: A549 cells, MUT knockout and BCAT1 knockout
pIC50: −log10 of the molar value.
# Lookup of reported pIC50 keyed by entry

1. O=C1c2cc(F)ccc2CN1[C@H]1CCC[C@@H](n2c(-c3ccccc3F)nc3cnc(-c4nc[nH]n4)cc32)[C@@H]1O [Example 184] = > 7.00
2. O=C1c2cc(F)ccc2CN1[C@H]1CCC[C@@H](n2c(-c3c(F)cccc3OC(F)F)nc3cnc(-c4nc[nH]n4)cc32)[C@@H]1O [compound 189] = > 7.00
3. O=C1c2cc(F)ccc2NCN1[C@H]1CCC[C@@H](n2c(-c3ccccc3F)nc3cnc(-c4nc[nH]n4)cc32)C1 [Example 208] = > 7.00
4. O=C(N[C@H]1CCC[C@@H](n2c(-c3ccccc3F)nc3cnc(-c4nc[nH]n4)cc32)C1)c1cc(F)ccn1 [Example 14] = > 7.00
5. CO[C@H]1C[C@H](NC(=O)c2cc(Cl)ccn2)C[C@H](n2c(CC(C)C)nc3cnc(-c4ncccn4)cc32)C1 [Example 117] = 6.00 to 6.30

Then this compound:
Req: Give pIC50 for CN1C[C@H](N2Cc3ccc(F)cc3C2=O)C[C@H](n2c(-c3ccccc3OCCO)nc3ccc(-c4ncccn4)cc32)C1 [Example 243]
Resp: 6.30 to 7.00

###

# Lookup of reported IC50 keyed by entry
MEASURED ON: BCAT2 (Homo sapiens, UniProt O15382)
PROTOCOL DESCRIPTION: BCAT2 in vitro enzyme inhibition assay (hBCAT2, glutamate dehydrogenase/diaphorase/resazurin coupled fluorescence read)
Type: biochemical
MEASUREMENT CONDITIONS: hBCAT2, 1 h preincubation at 25° C., one hour reaction; average where tested multiple times

Example entries and their recorded answers appear below.
1. CN1C[C@H](NC(=O)c2cc(Cl)ccn2)C[C@H](n2c(-c3ccccc3OCCO)nc3cnc(-c4ncco4)cc32)C1 [Example 161] = < 100 nM
2. CC(C)Oc1ccc(Cl)cc1C(=O)N[C@H]1CCC[C@@H](n2c(-c3ccccc3C#N)nc3cnc(-c4nc[nH]n4)cc32)C1 [Example 36] = < 100 nM

Then this compound:
Req: Give IC50 for CO[C@H]1C[C@@H](NC(=O)c2cc(F)ccn2)C[C@@H](n2c(-c3ccccc3F)nc3cnc(-c4nc[nH]n4)cc32)C1 [Example 115]
Resp: 100 to 500 nM
